READOUT TYPE: melting point

In plain terms, C#CCOc1c(OC)cc(/C=C/C(=O)/C=C/c2cc(OC)c(OC)c(OC)c2)cc1OC has a documented melting point of 118 to 120 °C

Just so you know, measured melting point for COCCOCOc1c(OC)cc(/C=C/C(=O)/C=C/c2cc(OC)c(OCOCCOC)c(OC)c2)cc1OC came out at 61 to 63 °C

melting point for COc1cc(Br)cc(/C=C/C(=O)/C=C/c2cc(Br)cc(OC)c2)c1 is 181 to 183 °C

C#CCOc1c(OC)cc(/C=C/C(=O)/C=C/c2cc(OC)c(OCC#C)c(OC)c2)cc1OC has a reported melting point of 162 to 164 °C

// O=C(/C=C/c1cc(O)cc(O)c1)/C=C/c1cc(O)cc(O)c1 (hydrate or solvate) : melting point value = 298 to 300 °C (dec.)

The recorded melting point for O=C(/C=C/c1ccc2ccccc2c1)/C=C/c1ccc2ccccc2c1 is 244 to 246 °C

Field melting point (entry COc1cc(/C=C/C(=O)/C=C/c2cc(OC)c(OCCN=[N+]=[N-])c(OC)c2)cc(OC)c1OCCN=[N+]=[N-] ) reads 107 to 109 °C

What the record says about COc1cc(/C=C/C(=O)/C=C/c2cc(OC)c(O)c(OC)c2)cc(OC)c1O : melting point is 166 to 168 °C

melting point in this record for COc1ccc(/C=C/C(=O)/C=C/c2ccc(OC)c(O)c2)cc1O : 195 to 197 °C

Query COc1cc(/C=C/C(=O)/C=C/c2cc(OC)c(OCCO)c(OC)c2)cc(OC)c1OCCO yields melting point of 133 to 135 °C

---

# Tested on: DLD-1 cells
# ASSAY INFO: Cell growth inhibition (Cell Counting Kit 8, Wst-8), 96 h exposure
# Format: cell-based
# CONDITION CONTEXT: Homo sapiens, DLD-1 colon cancer cells
READOUT TYPE: pIC50
Friendly reminder that pIC50 comes from taking -log10 of the concentration in mol/L.

Reported pIC50 of COCOc1c(OC)cc(/C=C/C(=O)/C=C/c2cc(OC)c(OCOC)c(OC)c2)cc1OC [GO-Y031] : 6.60

For reference, reported pIC50 for COc1cc(/C=C/C(=O)/C=C/c2cc(OC)c(OC)c(OC)c2)cc(OC)c1OC [GO-Y016] stands at 6.60

For COc1cc(/C=C/C(=O)CC(=O)/C=C/c2ccc(O)c(OC)c2)ccc1O [curcumin, reference compound] the molecule record lists pIC50 as 5.10

According to the records, this molecule COc1ccc(C=CC(=O)C=Cc2ccc(OC)c(OC)c2)cc1OC [GO-035, reference compound] displays pIC50 of 5.70
